Tested on: c-Src
procedure_text: phosphorylation enrichment, bacterial display (enrichment ratio); higher = better substrate or ligand; peptides without Tyr show the background
measured_metric: phosphorylation enrichment

METKGYHSLPE [NR3C2_Y6]	0.446
PFRSIYFSSPK [MPG_Y75_YF]	0.669
FAKSVYWENTL [NUP107_Y296_YF]	0.802

Please go through the list and note phosphorylation enrichment for each sequence.
1. FQRLRYIKQLG [SAMHD1_Y146]
2. QEGPEYWDQNT [HLA-A_Y83_E87N]

1: 0.473; 2: 0.546

###

tested_system: Fes (UniProt P07332)
Sequence (P07332 whole entry, looked up): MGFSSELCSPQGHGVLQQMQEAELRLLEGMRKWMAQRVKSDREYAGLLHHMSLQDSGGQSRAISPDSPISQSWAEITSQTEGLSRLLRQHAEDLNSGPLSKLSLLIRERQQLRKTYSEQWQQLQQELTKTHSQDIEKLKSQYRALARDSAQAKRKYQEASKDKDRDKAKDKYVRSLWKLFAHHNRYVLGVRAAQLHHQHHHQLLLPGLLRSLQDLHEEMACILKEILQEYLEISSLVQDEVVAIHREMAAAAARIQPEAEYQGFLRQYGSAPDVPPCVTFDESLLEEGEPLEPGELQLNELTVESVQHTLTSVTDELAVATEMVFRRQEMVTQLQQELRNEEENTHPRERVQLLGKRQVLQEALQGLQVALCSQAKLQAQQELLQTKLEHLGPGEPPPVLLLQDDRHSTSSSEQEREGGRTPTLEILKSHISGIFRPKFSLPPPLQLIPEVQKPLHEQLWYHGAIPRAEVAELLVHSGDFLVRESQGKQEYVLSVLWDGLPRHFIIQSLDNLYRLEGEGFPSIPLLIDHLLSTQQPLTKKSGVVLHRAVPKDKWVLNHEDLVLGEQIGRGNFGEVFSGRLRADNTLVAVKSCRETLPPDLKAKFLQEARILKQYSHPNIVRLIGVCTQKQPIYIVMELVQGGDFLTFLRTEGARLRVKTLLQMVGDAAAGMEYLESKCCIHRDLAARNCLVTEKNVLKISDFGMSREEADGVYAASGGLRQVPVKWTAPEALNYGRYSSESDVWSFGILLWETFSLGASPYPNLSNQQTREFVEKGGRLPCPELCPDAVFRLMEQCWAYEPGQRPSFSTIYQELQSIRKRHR
procedure_text: phosphorylation enrichment, bacterial display (enrichment ratio); higher = better substrate or ligand; peptides without Tyr show the background
Answer each item with its documented phosphorylation enrichment.
One number for each entry.

REEIKYMLWLS [OTC_Y55_G50R]	1.58

Please state phosphorylation enrichment for every sequence in the list that follows.
1. LARDMDDKEYY [MET_Y1230_Y1230D]
2. LLLLFYVVRYC [MPZ_Y177]
3. NGSFRYVIISQ [LRP1B_Y1988]
4. AQVDTYCRHNY [HLA-DRB1_Y107_A103Q]

1: 1.64; 2: 0.738; 3: 1.25; 4: 0.866

Consider the following items and state reported phosphorylation enrichment for each.
1. QKKEEYKMALY [F8_Y1990_R1985Q]
2. YGGLRYGYGVL [KRTAP20-2_Y13]
3. FAKSVYWENTL [NUP107_Y296_YF]
4. PLDNLYAEPAV [PRPS1_Y146_V142L]
5. QHNPEYVQQAT [LRRC7_Y1058_S1063T]

1. 1.41
2. 0.741
3. 1.32
4. 1.66
5. 0.799

For each of the sequences below, state phosphorylation enrichment.
1. LEIETYRRLRD [KRT12_Y429_L433R]
2. DFAIVYGTIIL [GPR179_Y460_G455D]
3. RIPFRYPKEFQ [IDS_Y234_H229R]
4. LLRLAYLADIF [ZBED5_Y476]
5. HRGSLYLAIEF [TEK_Y899_Y897S_YF]
6. EIIPFYGMSSY [FNDC3B_Y175_T179S]
7. CNNFICGGCRG [SPINT2_Y163_Y163C]
8. EVKAQYEDIAQ [KRT1_Y358]

[1.25, 1.51, 1.14, 1.02, 1.55, 0.914, 0.902, 1.26]

// batch mode: one phosphorylation enrichment value per listed entry
1. IRTIDYRYTVS [IDS_Y497_W502S]
2. TTPGPHRSIYF [MPG_Y71_Y71H]
3. LSDGPYSNSFE [EPOR_Y485_P488S_YF]
4. DCVRMYELVHR [GLE1_Y135_G130D]

1.13
0.577
1.65
1.31

Return reported phosphorylation enrichment values for all items listed beneath this line.
1. FIGVTYKNEED [PDGFRA_Y993_YF]
2. HFGCVYYGTLL [MET_Y1093_H1094Y]
3. FETSHYLASPD [CTNND2_Y1217_P1218L_YF]
4. SEDANYKRVSC [TTC3_Y1288]
5. MSRFIYSTDFF [NTRK1_Y676_D674Y_YF]

[1.11, 2.43, 0.824, 1.02, 1.31]

Please indicate phosphorylation enrichment recorded for TYTVSYLPDMS [FLNC_Y1602]
0.874

###

tested_system: FGFR1 (UniProt P11362)
Sequence (P11362 whole entry, looked up): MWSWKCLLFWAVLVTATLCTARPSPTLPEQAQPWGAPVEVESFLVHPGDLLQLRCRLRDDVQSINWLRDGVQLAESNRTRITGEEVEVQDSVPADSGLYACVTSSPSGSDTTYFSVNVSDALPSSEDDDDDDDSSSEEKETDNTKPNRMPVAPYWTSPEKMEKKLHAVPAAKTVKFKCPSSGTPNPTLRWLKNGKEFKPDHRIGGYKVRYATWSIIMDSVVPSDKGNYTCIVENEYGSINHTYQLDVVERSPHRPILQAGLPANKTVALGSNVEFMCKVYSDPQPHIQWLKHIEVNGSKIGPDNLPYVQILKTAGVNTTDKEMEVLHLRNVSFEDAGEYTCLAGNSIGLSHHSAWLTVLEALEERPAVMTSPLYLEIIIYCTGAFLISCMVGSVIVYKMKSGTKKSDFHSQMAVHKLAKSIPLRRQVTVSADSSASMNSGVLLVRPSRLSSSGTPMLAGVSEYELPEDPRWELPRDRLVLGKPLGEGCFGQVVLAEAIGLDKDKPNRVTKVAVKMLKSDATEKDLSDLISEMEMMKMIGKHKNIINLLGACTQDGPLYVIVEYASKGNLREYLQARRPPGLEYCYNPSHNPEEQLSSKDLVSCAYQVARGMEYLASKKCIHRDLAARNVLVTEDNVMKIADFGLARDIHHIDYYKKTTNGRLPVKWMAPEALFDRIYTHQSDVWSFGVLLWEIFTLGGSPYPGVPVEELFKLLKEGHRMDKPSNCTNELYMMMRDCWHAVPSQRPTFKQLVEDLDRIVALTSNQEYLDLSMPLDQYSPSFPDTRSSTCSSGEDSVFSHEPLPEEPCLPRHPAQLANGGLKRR
procedure_text: phosphorylation enrichment, bacterial display (enrichment ratio); higher = better substrate or ligand; peptides without Tyr show the background
measured_metric: phosphorylation enrichment
One number for each entry.

Example results:
KPPFSYNALIR [FOXG1_Y186_M191R]	0.505
LNPDGYEKAYE [CPXM2_Y427]	0.633
CLLHCYFSQIR [MCM3AP_Y873]	0.518
FISLIYTNFEA [GSTP1_Y109_YF]	0.683
VKMLLYTEVTR [GDI1_Y93]	0.529
KGPNVYKKTVN [REV3L_Y1156]	0.448

Then this sequence:
Fill in reported phosphorylation enrichment for this entry: FLRKEYGGLNV [CBR3_Y81]
0.393

###

tested_system: FGFR3 (UniProt P22607)
Sequence (P22607 whole entry, looked up): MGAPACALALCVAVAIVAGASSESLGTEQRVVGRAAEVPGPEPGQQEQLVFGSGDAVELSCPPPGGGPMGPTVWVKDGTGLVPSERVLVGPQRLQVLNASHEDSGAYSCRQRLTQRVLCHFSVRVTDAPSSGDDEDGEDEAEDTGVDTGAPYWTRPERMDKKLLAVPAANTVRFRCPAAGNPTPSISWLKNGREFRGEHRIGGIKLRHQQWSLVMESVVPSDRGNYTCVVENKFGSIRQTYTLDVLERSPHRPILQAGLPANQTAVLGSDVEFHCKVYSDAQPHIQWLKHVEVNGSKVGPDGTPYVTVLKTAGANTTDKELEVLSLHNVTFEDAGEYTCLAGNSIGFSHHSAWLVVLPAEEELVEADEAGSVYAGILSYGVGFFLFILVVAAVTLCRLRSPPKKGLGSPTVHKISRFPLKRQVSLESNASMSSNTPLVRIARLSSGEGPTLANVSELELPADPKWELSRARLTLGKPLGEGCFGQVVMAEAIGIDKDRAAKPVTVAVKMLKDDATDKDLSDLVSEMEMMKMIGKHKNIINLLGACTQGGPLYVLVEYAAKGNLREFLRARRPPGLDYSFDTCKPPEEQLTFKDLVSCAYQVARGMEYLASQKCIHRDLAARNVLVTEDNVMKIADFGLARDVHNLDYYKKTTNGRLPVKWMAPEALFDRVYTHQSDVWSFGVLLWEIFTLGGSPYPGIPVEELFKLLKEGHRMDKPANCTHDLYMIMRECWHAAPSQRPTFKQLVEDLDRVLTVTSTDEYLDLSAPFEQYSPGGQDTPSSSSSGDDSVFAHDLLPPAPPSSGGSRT
procedure_text: phosphorylation enrichment, bacterial display (enrichment ratio); higher = better substrate or ligand; peptides without Tyr show the background
For each record, write down the corresponding phosphorylation enrichment.
One number for each entry.

Use the examples below as a reference point.
FSQQTYFRVSN [ABCD1_Y180_YF]	1.19
KRLDGYVLEGR [IGSF9_Y656]	0.44
VLDCHYPEDEV [C1QBP_Y188]	0.88
AESPEHVHMFT [FAM111A_Y511_Y511H_YF]	0.614

I would be grateful if you could provide phosphorylation enrichment for each of the following entries.
1. LNPDGYEKAYE [CPXM2_Y427]
2. FHNSEYGELSE [FLT4_Y1337_Y1333H]
3. AIGFEYSEINI [SIGLEC12_Y588_YF]
4. AGLEEYSAMRD [HRAS_Y64_Q61L]
5. QNVADYMRCLM [RPL5_Y207_Y210C]
6. FCGFSYDDIPD [TMEM230_Y112_R108C_YF]
7. KTDKKYLMIKE [BAG3_Y451_E455K]
8. SIIKDSFHRGA [GATM_Y203_Y203S]

[0.789, 0.738, 1.69, 0.666, 0.969, 0.918, 0.526, 0.462]

For the 6 sequences below, give their phosphorylation enrichment values.
1. NLDRFYQQVTK [SEC16A_Y1041]
2. HNVAIYEGFAL [ACTC1_Y168_P166A_YF]
3. AVNNFYAAKKT [CCDC178_Y422_D420N]
4. LDAFIYNAAVL [GRIN2A_Y730_D731N]
5. MGSFNYLGFAR [SPTLC2_Y178_YF]
6. DEDEEYEYMNR [ERBB3_Y1197]

1. 0.574
2. 0.781
3. 0.402
4. 1.62
5. 0.603
6. 0.62

###

tested_system: Grb2 SH2 (UniProt P62993)
Sequence (P62993 whole entry, looked up): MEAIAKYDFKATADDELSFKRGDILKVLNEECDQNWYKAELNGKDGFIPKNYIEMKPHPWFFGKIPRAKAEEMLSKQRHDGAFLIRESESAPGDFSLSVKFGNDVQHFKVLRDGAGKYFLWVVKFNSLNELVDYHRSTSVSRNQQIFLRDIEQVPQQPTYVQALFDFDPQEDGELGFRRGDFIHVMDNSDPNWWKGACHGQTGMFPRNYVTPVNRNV
procedure_text: SH2 binding enrichment of the phosphorylated peptide, bacterial display (enrichment ratio); higher = better substrate or ligand; peptides without Tyr show the background
// class assignment uses SH2 binding enrichment with these ranges: lower segment (below 0.8), middle segment (0.8 to below 0.9), upper segment (0.9 or more)

Record excerpt, results attached:
LPKEQYLYTKE [AFG3L2_Y614]	lower segment
HDKEFYSVHNK [MET_Y1235_Y1230H_YF]	lower segment
AADGRYEVLFL [SEMA3F_Y478]	middle segment
YCRHNYGVVES [HLA-DRB1_Y112]	upper segment
PRPAGYPSMVS [CACNA1C_Y1832_T1835M]	lower segment

Class (by measured SH2 binding enrichment) for QTEGEYSSLEH [IDH3B_Y171]
lower segment

Band of QNTGNYYDLYG [PTPN11_Y62_D61N] ?
middle segment

###

Tested on: Fer (mouse)
procedure_text: phosphorylation enrichment, bacterial display (enrichment ratio); higher = better substrate or ligand; peptides without Tyr show the background
measured_metric: phosphorylation enrichment
Answers are plain numbers.

Some sequences with recorded phosphorylation enrichment:
ADRLEYSRTGL [MMUT_Y287_G284R]	0.338
EIRTQDEAMAS [GFAP_Y242_Y242D]	0.353
QSSALYEDHYL [ASS1_Y83_R86H]	18.5

List the reported phosphorylation enrichment of each sequence below.
1. FISLIYTNFEA [GSTP1_Y109_YF]
2. HFGCVYYGTLL [MET_Y1093_H1094Y]
3. ILTLKYPIKHG [ACTA1_Y71_E74K]
4. YASALYRQRRS [FGF11_Y162]
5. NKVQFYIPDMN [NCR1_Y84_K82Q]
6. GDKENYGLPQP [BUB1_Y538_N534D]
7. AFDNLYFWDQD [ERBB2_Y1221_YF]

1. 2
2. 1.76
3. 0.413
4. 0.431
5. 0.447
6. 0.419
7. 1.68

Provide phosphorylation enrichment values for the following items, in order.
1. GNHVSYYQSDG [CACNA1C_Y1757]
2. VKYGAYINDFK [GLB1_Y488_N484K]

1. 0.49
2. 0.353

For every item below, please supply its phosphorylation enrichment.
1. PGLSSYGVPGS [FLNB_Y1530_A1534G]
2. FTYDPYSEEDP [IL2RB_Y387]

1: 0.508; 2: 0.475

###

Tested on: Fer (mouse)
procedure_text: phosphorylation enrichment, bacterial display (enrichment ratio); higher = better substrate or ligand; peptides without Tyr show the background
measured_metric: phosphorylation enrichment
Numbers only.

Answered examples (6):
KGSLPYNLILD [PKD1L2_Y406]	0.488
HSGIFYKPESL [L2HGDH_Y103_YF]	1.05
PESTLYRKFTT [NTRK1_Y701_I699T]	0.448
LGQRIYQFIRS [DYRK1B_Y271_Q275R_YF]	5.51
AQVDTYCRHNY [HLA-DRB1_Y107_A103Q]	0.517
FRPPFYHRDCM [HGD_Y334_N337D_YF]	0.577

Note: attention shifts to another entry.
Hello, please tell me recorded phosphorylation enrichment for this one: MDDKEYFSVHN [MET_Y1234_Y1230D_YF]
0.434
